Test: Rat pharmacokinetics, iv and po dosing, whole blood and plasma
Assay type: in vivo
Settings: plasma, iv 1 mg/kg, mean, read-out: systemic clearance (converted)
Description: Rat pharmacokinetic data was obtained for example 2, following iv dosing at 1 mg/kg and po dosing at 10 mg/kg and individual analysis of plasma and whole blood samples at various time points was carried out.
quantity: clearance (mL/min/kg)
Respond numerically; units are mL/min/kg and should not be typed.

Reported clearance of CC(C)CC1NC(=O)[C@H](CC(C)C)N(C)C(=O)CN(C)C(=O)C([C@@H](C)O)NC(=O)C([C@H](O)[C@H](C)CCN2CCOCC2)N(C)C(=O)C(C(C)C)N(C)C(=O)C(CC(C)C)NC(=O)C(CC(C)C)N(C)C(=O)C(C(C)C)OC(=O)C(C)NC(=O)C(CC(C)C)N(C)C1=O (stereo in doubt) : 69.7
